test system: 186277-243-T-J2-PDC complex spheroid growth; experiment: Anticancer human tumor 186277-243-T-J2-PDC patient-derived colon adenocarcinoma cell line growth inhibition [AhR]; conditions: second compound 0.316 µM; first compound 0.00949 µM; stronger effect = lower value
Please provide measured viability, T/C for the entries that follow.
Answers are plain numbers, in %.

Some solved cases for reference:
Provide only the value of recorded viability, T/C for O=C(C=Cn1cnc(-c2cc(C(F)(F)F)cc(C(F)(F)F)c2)n1)NNc1cnccn1 + CC(CO)NC(=O)c1cc(-c2ccc(Cl)cc2)nn(-c2cnn(C)c2)c1=O
78

Provide only the value of recorded viability, T/C for CCN(c1cc(-c2ccc(CN3CCOCC3)cc2)cc(C(=O)NCc2c(C)cc(C)[nH]c2=O)c1C)C1CCOCC1 + Cc1cncc(-c2nc(NCCc3c[nH]c4ccccc34)c3ncn(C(C)C)c3n2)c1
91.8

Provide only the value of recorded viability, T/C for Nc1ncn(C2CC(O)C(CO)S2)c(=O)n1 (stereo unspecified) + CC(CO)NC(=O)c1cc(-c2ccc(Cl)cc2)nn(-c2cnn(C)c2)c1=O
92.8

Provide only the value of recorded viability, T/C for O=C(C=Cn1cnc(-c2cc(C(F)(F)F)cc(C(F)(F)F)c2)n1)NNc1cnccn1 + Cc1ccccc1N=Nc1ccc(NC(=O)c2ccnn2C)c(C)c1
94.2

Provide only the value of recorded viability, T/C for O=C(C=Cn1cnc(-c2cc(C(F)(F)F)cc(C(F)(F)F)c2)n1)NNc1cnccn1 + Cc1cncc(-c2nc(NCCc3c[nH]c4ccccc34)c3ncn(C(C)C)c3n2)c1
110

Then this compound:
Provide only the value of recorded viability, T/C for CCc1c2c(nc3ccc(O)cc13)-c1cc3c(c(=O)n1C2)COC(=O)[C@]3(O)CC + CC(CO)NC(=O)c1cc(-c2ccc(Cl)cc2)nn(-c2cnn(C)c2)c1=O
21.9

====

tested on: 186277-243-T-J2-PDC complex spheroid growth; assay: Anticancer human tumor 186277-243-T-J2-PDC cell line growth inhibition [AhR]; conditions: curve of first compound; second compound 1 µM;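 also: spheroids exposed to compounds for seven days before the viability read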
Please provide measured pIC50 for the entries that follow.
Answers are plain numbers, as −log10 of the molar value.

Some solved cases for reference:
Give the observed pIC50 of CC1COCCN1c1cc(C2(S(C)(=N)=O)CC2)nc(-c2ccnc3[nH]ccc23)n1 (stereo not drawn) + Cc1cncc(-c2nc(NCCc3c[nH]c4ccccc34)c3ncn(C(C)C)c3n2)c1 for 186277-243-T-J2-PDC complex spheroid growth.
5.43

Give the observed pIC50 of Nc1ccccc1NC(=O)c1ccc(CNC(=O)OCc2cccnc2)cc1 + Cc1cncc(-c2nc(NCCc3c[nH]c4ccccc34)c3ncn(C(C)C)c3n2)c1 for 186277-243-T-J2-PDC complex spheroid growth.
5.43

Give the observed pIC50 of O=C(c1cc(Cc2n[nH]c(=O)c3ccccc23)ccc1F)N1CCN(C(=O)C2CC2)CC1 + CC(CO)NC(=O)c1cc(-c2ccc(Cl)cc2)nn(-c2cnn(C)c2)c1=O for 186277-243-T-J2-PDC complex spheroid growth.
5.07

Give the observed pIC50 of Nc1ccccc1NC(=O)c1ccc(CNC(=O)OCc2cccnc2)cc1 + Cc1ccccc1N=Nc1ccc(NC(=O)c2ccnn2C)c(C)c1 for 186277-243-T-J2-PDC complex spheroid growth.
5.25

Give the observed pIC50 of O=C(C=Cn1cnc(-c2cc(C(F)(F)F)cc(C(F)(F)F)c2)n1)NNc1cnccn1 + CC(CO)NC(=O)c1cc(-c2ccc(Cl)cc2)nn(-c2cnn(C)c2)c1=O for 186277-243-T-J2-PDC complex spheroid growth.
7.14

Give the observed pIC50 of COc1cc(C2c3cc4c(cc3C(OC3OC5COC(C)OC5C(O)C3O)C3COC(=O)C23)OCO4)cc(OC)c1O (stereo not drawn) + Cc1ccccc1N=Nc1ccc(NC(=O)c2ccnn2C)c(C)c1 for 186277-243-T-J2-PDC complex spheroid growth.
5.12

Give the observed pIC50 of CC1(C)CCC(CN2CCN(c3ccc(C(=O)NS(=O)(=O)c4ccc(NCC5CCOCC5)c([N+](=O)[O-])c4)c(Oc4cnc5[nH]ccc5c4)c3)CC2)=C(c2ccc(Cl)cc2)C1 + CC(CO)NC(=O)c1cc(-c2ccc(Cl)cc2)nn(-c2cnn(C)c2)c1=O for 186277-243-T-J2-PDC complex spheroid growth.
5.24

Give the observed pIC50 of O=C(C=Cn1cnc(-c2cc(C(F)(F)F)cc(C(F)(F)F)c2)n1)NNc1cnccn1 + Cc1cncc(-c2nc(NCCc3c[nH]c4ccccc34)c3ncn(C(C)C)c3n2)c1 for 186277-243-T-J2-PDC complex spheroid growth.
6.32

Take each entry in turn and give its pIC50.
1. CC(C)CC(NC(=O)C(Cc1ccccc1)NC(=O)c1cnccn1)B(O)O (stereo not drawn) + CC(CO)NC(=O)c1cc(-c2ccc(Cl)cc2)nn(-c2cnn(C)c2)c1=O
2. COc1cccc2c1C(=O)c1c(O)c3c(c(O)c1C2=O)CC(O)(C(=O)CO)CC3OC1CC(N)C(O)C(C)O1 (stereo not drawn) + Cc1cncc(-c2nc(NCCc3c[nH]c4ccccc34)c3ncn(C(C)C)c3n2)c1
3. CC1(C)CCC(CN2CCN(c3ccc(C(=O)NS(=O)(=O)c4ccc(NCC5CCOCC5)c([N+](=O)[O-])c4)c(Oc4cnc5[nH]ccc5c4)c3)CC2)=C(c2ccc(Cl)cc2)C1 + Cc1ccccc1N=Nc1ccc(NC(=O)c2ccnn2C)c(C)c1

8.22
6.79
5.14

Data credit: PubChem BioAssay AID1918991
